Attribution: patent US20200109188A1

- targetDesc: recombinant HA subtype H3 (A/Perth/16/09 (H3N2)) (influenza A virus)
- methodSummary: ELISA, rHA coated
metric: EC50

In the examples that follow, each entry is paired with its recorded EC50.
[[record]]
binder = "Antibody 8 (antibody, V domains shown) VH: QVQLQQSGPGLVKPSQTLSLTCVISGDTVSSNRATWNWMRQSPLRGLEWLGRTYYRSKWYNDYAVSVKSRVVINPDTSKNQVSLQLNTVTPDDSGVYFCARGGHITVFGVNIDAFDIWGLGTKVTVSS VL: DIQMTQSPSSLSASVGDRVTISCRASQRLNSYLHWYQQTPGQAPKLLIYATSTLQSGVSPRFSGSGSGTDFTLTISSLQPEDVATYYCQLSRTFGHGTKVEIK"
metric = "EC50"
valuemeasured = "0.067 µg/mL"

[[record]]
binder = "Antibody 6 (antibody, V domains shown) VH: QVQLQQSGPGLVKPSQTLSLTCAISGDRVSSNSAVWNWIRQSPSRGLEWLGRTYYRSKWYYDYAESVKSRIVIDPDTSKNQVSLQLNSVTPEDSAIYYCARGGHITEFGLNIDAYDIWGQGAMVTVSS VL: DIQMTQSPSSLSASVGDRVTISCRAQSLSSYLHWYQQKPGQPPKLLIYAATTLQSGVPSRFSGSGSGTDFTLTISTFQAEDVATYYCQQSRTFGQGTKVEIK"
metric = "EC50"
valuemeasured = "0.064 µg/mL"

[[record]]
binder = "Antibody 10 (antibody, V domains shown) VH: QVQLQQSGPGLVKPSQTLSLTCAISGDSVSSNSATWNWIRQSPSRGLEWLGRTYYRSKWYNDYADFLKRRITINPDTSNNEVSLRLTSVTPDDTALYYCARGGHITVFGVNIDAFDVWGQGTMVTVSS VL: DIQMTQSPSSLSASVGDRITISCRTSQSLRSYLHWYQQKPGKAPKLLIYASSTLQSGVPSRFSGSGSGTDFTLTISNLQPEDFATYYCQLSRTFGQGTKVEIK"
metric = "EC50"
valuemeasured = "0.049 µg/mL"


[in] Hello, please tell me recorded EC50 for this one: Antibody 5 (antibody, V domains shown) VH: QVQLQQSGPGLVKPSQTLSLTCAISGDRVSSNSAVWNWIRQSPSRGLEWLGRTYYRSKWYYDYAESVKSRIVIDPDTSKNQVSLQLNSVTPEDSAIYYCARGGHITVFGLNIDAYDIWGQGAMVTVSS VL: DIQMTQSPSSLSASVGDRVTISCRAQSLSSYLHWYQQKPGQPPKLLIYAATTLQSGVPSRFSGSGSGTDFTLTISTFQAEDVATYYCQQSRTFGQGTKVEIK
[out] 0.03 µg/mL
